Test system: LU-01-0025
PROTOCOL TEXT: PDX cytotoxicity assay, lung carcinoma PDX LU-01-0025
Format: cell-based
QUANTITY: IC50 (µM)
Use µM as the unit, but write only the number.

Consider the compound "COc1c(O)ccc2c(=O)cc(-c3ccc(CNCCCCNCCCN)cc3)oc12" and give its measured IC50.
5

---

Test system: BR-05-0014E
PROTOCOL TEXT: PDX cytotoxicity assay, breast PDX BR-05-0014E
Assay type: cell-based
QUANTITY: IC50 (µM)
Use µM as the unit, but write only the number.

Item "COc1c(O)ccc2c(=O)cc(-c3ccc(CNCCCCNCCCN)cc3)oc12" with BR-05-0014E - IC50?
13.3
